target: UniProt Q6IE75; assay: Assay for BACE inhibition by measuring cellular TMEM27 cleavage; conditions: INS-TMEM27 (INS1e rat cell line, inducible hTMEM27); shed TMEM27 by ELISA
Sequence (Q6IE75 63-514): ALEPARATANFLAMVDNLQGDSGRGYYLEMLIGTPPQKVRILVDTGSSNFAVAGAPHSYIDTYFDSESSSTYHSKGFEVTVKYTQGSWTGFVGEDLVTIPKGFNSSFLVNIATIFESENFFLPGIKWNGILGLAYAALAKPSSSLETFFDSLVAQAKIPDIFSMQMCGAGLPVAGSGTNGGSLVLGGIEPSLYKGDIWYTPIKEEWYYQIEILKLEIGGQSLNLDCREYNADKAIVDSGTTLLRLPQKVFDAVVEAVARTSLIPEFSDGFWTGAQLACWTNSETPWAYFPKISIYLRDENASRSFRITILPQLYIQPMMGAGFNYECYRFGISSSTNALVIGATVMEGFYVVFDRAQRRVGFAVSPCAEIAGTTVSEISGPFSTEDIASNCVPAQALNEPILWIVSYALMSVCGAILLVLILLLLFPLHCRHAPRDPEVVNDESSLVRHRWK
Values of IC50 strictly less than 100 nM map to satisfied, and values of at least 100 nM map to not satisfied.

molecule	target_entity	classification
C[C@]1(F)COC(N)=N[C@]1(C)c1cc(NC(=O)c2ncccc2OCC(F)(F)F)ccc1F [Example 37]	UniProt Q6IE75	not satisfied
C[C@]1(c2cc(NC(=O)c3ncc(Cl)cc3F)ccc2F)N=C(N)OC[C@@H]1F [Example 8]	UniProt Q6IE75	satisfied
C[C@]1(F)COC(N)=N[C@]1(C)c1cc(NC(=O)c2ccc(F)cn2)ccc1F [Example 42]	UniProt Q6IE75	satisfied
C[C@]1(c2cc(NC(=O)c3ccc(OCC(F)(F)F)cn3)ccc2F)N=C(N)OC[C@@H]1F [Example 17]	UniProt Q6IE75	not satisfied
C[C@]1(c2cc(NC(=O)c3ncc(F)cc3F)ccc2F)N=C(N)OC[C@@H]1F [Example 3]	UniProt Q6IE75	satisfied
C[C@]1(c2cc(NC(=O)c3ccc(F)cn3)ccc2F)N=C(N)OC[C@@H]1F [Example 20]	UniProt Q6IE75	satisfied
C[C@]1(c2cc(NC(=O)c3ncc(C(F)(F)F)cc3Cl)ccc2F)N=C(N)OC[C@@H]1F [Example 9]	UniProt Q6IE75	not satisfied
C[C@]1(F)COC(N)=N[C@]1(C)c1cc(NC(=O)c2ccc(Cl)cn2)ccc1F [Example 41]	UniProt Q6IE75	satisfied
C[C@]1(F)COC(N)=N[C@]1(C)c1cc(NC(=O)c2nn(CC(F)F)cc2Cl)ccc1F [Example 43]	UniProt Q6IE75	not satisfied
C[C@]1(c2cc(NC(=O)c3ncc(C#N)cc3Cl)ccc2F)N=C(N)OC[C@H]1F [Example 35]	UniProt Q6IE75	not satisfied
